Source of measurements: ChEMBL document CHEMBL1154688

test: AUC in Beagle dog at 3 mg/kg, iv; assay type: ADME, organism-based, Canis lupus familiaris; set-up: dose 3 mg/kg, route intravenous; conditions: plasma
OBSERVATION TYPE: AUC (ng·h/mL)
# value in ng·h/mL; strip the unit string

Query: // Input: COc1ccc(CCN2C(=O)N(NS(C)(=O)=O)C[C@H]2c2ccc(OC)cc2)cc1 . Output its AUC only.
Reply: 2410

* * *

molecular target: Potassium voltage-gated channel subfamily A member 1 (Homo sapiens); experiment: Inhibition of Kv1.1 expressed in CHO cells by patch-clamp technique; format: cell-based
Sequence (Q09470 whole entry): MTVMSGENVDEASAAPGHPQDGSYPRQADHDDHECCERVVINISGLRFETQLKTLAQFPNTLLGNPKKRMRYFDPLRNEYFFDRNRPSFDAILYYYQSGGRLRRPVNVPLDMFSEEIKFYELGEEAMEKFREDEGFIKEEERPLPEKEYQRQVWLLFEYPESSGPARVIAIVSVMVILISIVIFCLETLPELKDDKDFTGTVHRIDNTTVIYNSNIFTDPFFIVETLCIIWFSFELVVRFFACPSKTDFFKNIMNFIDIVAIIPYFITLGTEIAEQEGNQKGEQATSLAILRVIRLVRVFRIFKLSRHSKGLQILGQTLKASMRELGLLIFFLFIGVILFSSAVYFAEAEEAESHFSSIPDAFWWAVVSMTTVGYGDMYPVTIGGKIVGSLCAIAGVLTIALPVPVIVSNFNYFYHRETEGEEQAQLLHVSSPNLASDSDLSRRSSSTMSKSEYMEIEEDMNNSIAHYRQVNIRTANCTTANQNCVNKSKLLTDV
OBSERVATION TYPE: pIC50
# log scale: pIC50 equals minus log10 of the concentration in mol/L

Query: Tell me its pIC50 given COc1ccc(CCN2C(=O)N(NS(C)(=O)=O)C[C@H]2c2ccc(OC)cc2)cc1 as the entry.
Reply: 5.58

* * *

experiment: Oral bioavailability in Beagle dog at 3 mg/kg; format: ADME, organism-based, Canis lupus familiaris; conditions: in vivo
OBSERVATION TYPE: bioavailability (%)
Give the quantity in %, number only.

Query: Please indicate bioavailability recorded for COc1ccc(CCN2C(=O)N(NS(C)(=O)=O)C[C@H]2c2ccc(OC)cc2)cc1
Reply: 82

* * *

assay: Tmax in Beagle dog at 3 mg/kg, po; format: ADME, organism-based, Canis lupus familiaris; set-up: dose 3 mg/kg, route oral; conditions: in vivo
OBSERVATION TYPE: Tmax (h)
Respond numerically; units are h and should not be typed.

Query: Name the recorded Tmax of the compound listed here: COc1ccc(CCN2C(=O)N(NS(C)(=O)=O)C[C@H]2c2ccc(OC)cc2)cc1
Reply: 1

* * *

assay: AUC in Beagle dog at 3 mg/kg, po; format: ADME, organism-based, Canis lupus familiaris; design: dose 3 mg/kg, route oral; conditions: plasma
OBSERVATION TYPE: AUC

Query: Give recorded AUC. COc1ccc(CCN2C(=O)N(NS(C)(=O)=O)C[C@H]2c2ccc(OC)cc2)cc1
Reply: 1990 ng·h/mL

* * *

experiment: Permeability from basolateral to apical side in human Caco-2 cells at pH 7.4; assay type: ADME, cell-based; details: Caco-2, pH 7.4, read-out: permeability
OBSERVATION TYPE: Papp B→A

Query: Note down Papp B→A recorded for COc1ccc(CCN2C(=O)N(NS(C)(=O)=O)C[C@H]2c2ccc(OC)cc2)cc1
Reply: 39 ×10⁻⁶ cm/s

* * *

Target: A-type voltage-gated potassium channel KCND3 (Homo sapiens)
Sequence (Q9UK17 whole entry): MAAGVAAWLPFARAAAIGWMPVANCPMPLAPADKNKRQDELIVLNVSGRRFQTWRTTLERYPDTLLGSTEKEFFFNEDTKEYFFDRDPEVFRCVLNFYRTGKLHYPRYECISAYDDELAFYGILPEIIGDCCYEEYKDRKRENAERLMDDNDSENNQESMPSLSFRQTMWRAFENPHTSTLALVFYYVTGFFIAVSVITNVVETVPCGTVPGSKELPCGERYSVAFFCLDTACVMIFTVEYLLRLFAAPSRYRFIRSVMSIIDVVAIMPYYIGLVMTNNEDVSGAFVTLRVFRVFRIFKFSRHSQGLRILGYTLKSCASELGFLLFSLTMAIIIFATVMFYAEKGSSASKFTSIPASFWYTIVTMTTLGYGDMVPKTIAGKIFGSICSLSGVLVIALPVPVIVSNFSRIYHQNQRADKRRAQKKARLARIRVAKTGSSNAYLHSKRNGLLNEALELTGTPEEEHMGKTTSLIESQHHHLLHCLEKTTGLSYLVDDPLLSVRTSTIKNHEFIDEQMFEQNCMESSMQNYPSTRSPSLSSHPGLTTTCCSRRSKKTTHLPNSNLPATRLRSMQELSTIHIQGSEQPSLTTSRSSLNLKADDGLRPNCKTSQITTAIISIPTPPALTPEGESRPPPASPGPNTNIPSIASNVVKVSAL
Test: Inhibition of Kv4.3 expressed in CHO cells by patch-clamp technique
OBSERVATION TYPE: IC50 (µM)
Report the figure in µM without appending any unit label.

Query: Provide IC50 value for the following compound: COc1ccc(CCN2C(=O)N(NS(C)(=O)=O)C[C@H]2c2ccc(OC)cc2)cc1
Reply: 3.87

* * *

target: Cytochrome P450 2C9 (Homo sapiens, UniProt P11712)
Sequence (P11712 whole entry): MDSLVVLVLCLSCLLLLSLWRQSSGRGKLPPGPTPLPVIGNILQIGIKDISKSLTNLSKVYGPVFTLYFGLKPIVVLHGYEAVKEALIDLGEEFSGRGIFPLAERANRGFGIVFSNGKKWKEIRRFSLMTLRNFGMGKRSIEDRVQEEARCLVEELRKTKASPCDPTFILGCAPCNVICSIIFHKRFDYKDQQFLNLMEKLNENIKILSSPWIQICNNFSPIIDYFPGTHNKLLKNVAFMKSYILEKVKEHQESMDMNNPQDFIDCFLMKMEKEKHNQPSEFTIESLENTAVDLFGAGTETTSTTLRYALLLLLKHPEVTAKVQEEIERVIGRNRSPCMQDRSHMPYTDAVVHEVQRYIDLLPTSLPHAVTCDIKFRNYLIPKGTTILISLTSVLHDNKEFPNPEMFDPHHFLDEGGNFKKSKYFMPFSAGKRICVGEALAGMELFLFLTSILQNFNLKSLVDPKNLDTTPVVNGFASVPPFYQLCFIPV
OBSERVATION TYPE: pIC50
Note: pIC50 values are expressed as the negative base-10 logarithm of concentration in M.

Query: Please look at this molecule and report its pIC50: COc1ccc(CCN2C(=O)N(NS(C)(=O)=O)C[C@H]2c2ccc(OC)cc2)cc1
Reply: 4.33

* * *

test: Volume of distribution at steady state in Beagle dog at 3 mg/kg, iv; type: ADME, organism-based, Canis lupus familiaris; parameters: dose 3 mg/kg, route intravenous; settings: in vivo, read-out: Vdss
OBSERVATION TYPE: Vd (L/kg)
Value expressed in L/kg; do not type the unit.

Query: Consider the molecule COc1ccc(CCN2C(=O)N(NS(C)(=O)=O)C[C@H]2c2ccc(OC)cc2)cc1 . State its measured Vd.
Reply: 2.2

* * *

biological target: Potassium voltage-gated channel subfamily A member 5 (Homo sapiens); assay: Inhibition of human Kv1.5 expressed in CHO cells by patch-clamp technique
Sequence (P22460 whole entry): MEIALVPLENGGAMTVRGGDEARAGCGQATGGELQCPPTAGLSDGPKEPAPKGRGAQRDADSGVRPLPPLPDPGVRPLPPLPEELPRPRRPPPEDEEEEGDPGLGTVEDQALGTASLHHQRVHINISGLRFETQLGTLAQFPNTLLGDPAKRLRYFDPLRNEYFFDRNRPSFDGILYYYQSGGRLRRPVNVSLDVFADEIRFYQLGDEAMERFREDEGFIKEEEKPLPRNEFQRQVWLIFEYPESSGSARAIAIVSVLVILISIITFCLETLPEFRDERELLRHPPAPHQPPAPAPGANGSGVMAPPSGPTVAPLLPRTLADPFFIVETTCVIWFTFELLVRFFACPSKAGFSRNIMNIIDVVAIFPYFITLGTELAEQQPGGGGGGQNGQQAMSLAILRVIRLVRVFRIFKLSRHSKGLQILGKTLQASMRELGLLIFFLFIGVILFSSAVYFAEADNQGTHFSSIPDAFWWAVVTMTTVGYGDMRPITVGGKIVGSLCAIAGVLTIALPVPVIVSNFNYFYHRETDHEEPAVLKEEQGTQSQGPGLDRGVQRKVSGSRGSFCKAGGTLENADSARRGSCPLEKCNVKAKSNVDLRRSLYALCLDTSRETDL
OBSERVATION TYPE: IC50 (nM)
Answer with a number only, understood to be in nM.

Use the examples below as a reference point.
- MOLECULE: "COc1ccc(CCN2C(=O)N(NS(=O)(=O)Cc3cccnc3)C[C@@H]2c2ccc(OC)cc2)cc1"
  IC50, nM: 600
- MOLECULE: "COc1ccc(CCN2C(=O)N(NS(=O)(=O)CF)C[C@@H]2c2ccc(OC)cc2)cc1"
  IC50, nM: 900
- MOLECULE: "COCCOc1ccc(C2CN(NS(C)(=O)=O)C(=O)N2CCc2ccc(OC)cc2)cc1 (configuration not stated)"
  IC50, nM: 7450

Query: For COc1ccc(CCN2C(=O)N(NS(=O)(=O)CC#N)C[C@@H]2c2ccc(OC)cc2)cc1 , write its IC50.
Reply: 230

Query: State its IC50 for this molecule: CCOc1ccc(CCN2C(=O)N(NS(C)(=O)=O)C[C@@H]2c2ccc(OC)cc2)cc1
Reply: 770

* * *

experiment: Metabolic stability in human liver microsomes assessed as half life; format: ADME, Microsome
# half-life per entry
Reply numerically in min, unit not repeated.

Check out these entries, answers already filled in.
- COMPOUND: "COc1ccc(CCN2C(=O)N(NS(=O)(=O)CF)C[C@@H]2c2ccc(OC)cc2)cc1"
  OBSERVATION TYPE: "half-life"
  READOUT NUMBER: 13
- COMPOUND: "COc1ccc(CCN2C(=O)N(NS(C)(=O)=O)C[C@H]2c2ccc(OC)cc2)cc1"
  OBSERVATION TYPE: "half-life"
  READOUT NUMBER: 30
- COMPOUND: "COc1ccc(CCCN2C(=O)N(NS(C)(=O)=O)C[C@H]2c2ccc(OC)cc2)cc1"
  OBSERVATION TYPE: "half-life"
  READOUT NUMBER: 12
- COMPOUND: "COc1ccc(CCN2C(=O)N(NS(=O)(=O)Cc3ccccc3)C[C@@H]2c2ccc(OC)cc2)cc1"
  OBSERVATION TYPE: "half-life"
  READOUT NUMBER: 3
- COMPOUND: "COc1ccc([C@H]2CN(NS(C)(=O)=O)C(=O)N2CCc2ccc(OC(F)(F)F)cc2)cc1"
  OBSERVATION TYPE: "half-life"
  READOUT NUMBER: 15

Please look at the following compound next.
Query: Return half-life (reported value) for this compound: COc1ccc(CCN2C(=O)N(NS(C)(=O)=O)CC2c2ccc(C)cc2)cc1 (stereo unspecified)
Reply: 18

* * *

Listed below: log10 of solubility values for each entry.
assay: Aqueous solubility at pH 7.4 by direct UV method; type: physicochemical; settings: aqueous medium
Quick note: numbers are log10 of solubility, with mg/mL as the unit.

Example results:
- COMPOUND: "COc1ccc(CCN2C(=O)N(NS(C)(=O)=O)CC2c2ccc(C)c(C)c2)cc1 (stereo not given)"
  OBSERVATION TYPE: "log10 of solubility"
  READOUT NUMBER: -1.77
- COMPOUND: "COc1ccc(CCN2C(=O)N(NS(C)(=O)=O)CC2c2ccc(OC(C)C)cc2)cc1 (stereo not given)"
  OBSERVATION TYPE: "log10 of solubility"
  READOUT NUMBER: -1.59
- COMPOUND: "COc1ccc([C@H]2CN(NS(C)(=O)=O)C(=O)N2CCc2ccc(OC(F)(F)F)cc2)cc1"
  OBSERVATION TYPE: "log10 of solubility"
  READOUT NUMBER: -2.40
- COMPOUND: "COc1ccc(CCN2C(=O)N(NS(C)(=O)=O)CC2c2ccc(C(F)(F)F)cc2)cc1 (stereo not given)"
  OBSERVATION TYPE: "log10 of solubility"
  READOUT NUMBER: -1.89

Next compound, please.
Query: Please give measured log10 of solubility of the following entry: COc1ccc(CCN2C(=O)N(NS(=O)(=O)CF)C[C@@H]2c2ccc(OC)cc2)cc1
Reply: -1.00
